Assign protein stability index to each entry below.
B1: FBF1 (parent)
chain: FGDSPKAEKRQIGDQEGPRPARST

variants of: B1; assay: protein stability index of a GFP-peptide fusion (GPS, HEK-293T) (PSI 1-6); higher = more stable; conditions: c terminus: a fixed tail appended;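 also: lentivirally expressed fusions sorted by FACS into six bins by GFP to DsRed ratio, PSI derived from sequencing read proportions per bin multiplied by bin number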
# answer = number (no unit)

Q: Requested read-out: protein stability index. Entry: FGDSPKAEKRQYGDQEGPRPARST [I12Y]
Ans: 4.24

Q: Requested read-out: protein stability index. Entry: FGDSPEAEKRQIGDQEGPRPARST [K6E]
Ans: 5.25

Q: Requested read-out: protein stability index. Entry: FGDEPKAEKRQIGDQEGPRPARST [S4E]
Ans: 5.2

Q: Requested read-out: protein stability index. Entry: FGDSPKAEKRQIGDQHGPRPARST [E16H]
Ans: 4.21

Q: Requested read-out: protein stability index. Entry: FGDSPKAEKRQIGDQEGPRPHRST [A21H]
Ans: 4.93

Q: Requested read-out: protein stability index. Entry: FGDSPKAEHRQIGDQEGPRPARST [K9H]
Ans: 5.22
